Where these numbers come from: patent US20140309229A1

# System: COLO-320-HSR
# PROCEDURE_SUMMARY: MTS proliferation assay
# Assay type: cell-based, human
# MEASUREMENT_CONDITIONS: Homo sapiens, COLO-320-HSR, 72 h
pIC50: −log10 of the molar value.

{"STRUCTURE_NOTATION": "C[C@@]1(C(=O)Nc2ccc(F)nc2)CCCN1c1nc(Nc2cc(C3CC3)n[nH]2)c2cccn2n1", "TESTED_ON": "COLO-320-HSR", "pIC50": 7.46}

----------
# Tested on: HT55
# PROCEDURE_SUMMARY: MTS proliferation assay
# Type: cell-based, human
# MEASUREMENT_CONDITIONS: Homo sapiens, HT55, 72 h
READOUT_LABEL: IC50 (nM)

{"STRUCTURE_NOTATION": "C[C@@]1(C(=O)Nc2ccc(F)nc2)CCCN1c1nc(Nc2cc(C3CC3)n[nH]2)c2cccn2n1", "VALUE_MEASURED": 3}
